# System: NCI-H23 lung
# Test Description: NCI tumour cell line growth inhibition, 48 h
Below, each of the compounds is paired with its reported GI50 value.

# GI50 lookup, item CN(C)CCCC1(c2ccc(F)cc2)OCc2cc(-c3ccc4cc[nH]c4c3)ccc21 (stereo not drawn)
1.97 µM

Requested field: GI50. Item: Cc1cc(N2CCN(C)CC2)nc(NC2CCCC(Nc3ccnc4cc(Cl)ccc34)C2)n1 (stereo not drawn)
4.19 µM

Given the compound O=C(N/N=C/c1cc2ccccc2c2ccccc12)c1cc(O)c(O)c(O)c1 , what is its reported GI50?
3.4 µM

What does the record list as GI50 for O=C(Oc1ccc([N+](=O)[O-])cc1)N1CCC(C(O)(c2ccc3c(c2)OCO3)c2ccc3c(c2)OCO3)CC1 ?
> 100 µM

Item O=C(Nc1ccc(-n2cc(-c3ccncc3)c(-c3ccc(Cl)c(O)c3)n2)cc1)c1cc(Cl)cc(Cl)c1 has what recorded GI50?
7.41 µM

Others:
Which GI50 value belongs to C#C[C@]1(O)CC[C@H]2[C@@H]3CC=C4c5nc(Nc6ccc(OC)cc6OC)sc5CC[C@]4(C)[C@H]3CC[C@@]21C ?
2.18 µM

Which GI50 reading was recorded for the compound C=CC(=O)Nc1cc2c(Nc3ccc(OCc4ccccn4)c(Cl)c3)ncnc2cc1OCCN1CCOCC1 ?
5.24 µM

Entry under review: C[C@]12CC[C@@H]3c4ccc(O)cc4CC[C@H]3[C@@H]1CC[C@@H]2NS(=O)(=O)c1cccc(Br)c1 . Reported GI50?
3.89 µM

---

Catalogue of GI50 values
# Tested on: OVCAR-5 ovarian
# Test Description: NCI tumour cell line growth inhibition, 48 h

Reported GI50 for COCCOC(C)C(/C=N/NC(N)=S)=N/NC(N)=S (stereo not given) : what is it?
> 100 µM

Please look up its GI50: NC(=O)c1c(OCc2c(F)cc(Br)cc2F)nsc1NC(=O)NCCCCN1CCCC1
3.1 µM

Field request: GI50 | item: O=C1C(Nc2ccccn2)=C(I)C(=O)c2ncccc21
1.71 µM

Recorded GI50 of O=c1cccc(C#CCCCCOC2CCCO2)o1 (stereo not given) , please.
19.7 µM

Now for another entry.
# GI50 lookup, item NC1=C(c2nc(-c3cc4ccccc4oc3=O)cs2)C(c2ccco2)c2c(c3ccccc3oc2=O)O1 (stereo not given)
> 150 µg/mL

---

# System: EKVX NSCLC
# Test Description: NCI tumour cell line growth inhibition, 48 h
Where a SMILES comes first, the peptide text is derived from it. [ ]: non-standard residue; d: D form. 2Nal = N[CH](Cc1ccc2ccccc2c1)C(=O)O
Quantity Kind: GI50

State the recorded GI50 for this entry: C/C=C(/C)C(=O)OC1C=C(CO)C(=O)C(OC(=O)/C(C)=C\C)C1C(C)C (configuration not stated)
1.75 µM

New cases:
For O=C1c2cccc3c(N4CCN(c5ccc6c7c(cccc57)C(=O)N(CCN5CCNCC5)C6=O)CC4)ccc(c23)C(=O)N1CCN1CCNCC1 , what is its reported GI50?
20.9 µM

For the molecule Clc1ccc2c(NCCCN3CCN(c4nc(-n5ccnc5)nc5ccccc45)CC3)ccnc2c1 , what GI50 is on record?
> 28.4 µM

Fill blank: measured GI50 of the molecule CC(NC(=O)C(N)Cc1ccccc1)C(=O)NC(Cc1ccc(O)cc1)C(=O)NC(Cc1c[nH]c2ccccc12)C(=O)NC(CCCCN)C(=O)NC(C(=O)NC(C)C(=O)NC(Cc1ccc2ccccc2c1)C(N)=O)C(C)C (configuration not stated) (H-FAYWKVA[2Nal]-NH2; configuration not given here) is ____.
25.9 µM

What value of measured GI50 is listed for O=C(c1cccs1)c1c(C(F)(F)F)n([O-])c2cc(F)c(F)cc2[n+]1=O ?
2.44 µM

Value lookup for GI50; key = CCN(C)S(=O)(=O)Nc1cccc(Nc2ncnc3cc(NC(=O)CCl)ccc23)c1Cl
3.9 µM

Requested field: GI50. Item: N#CC1=C(N)Oc2c(sc3c(F)cccc23)C1c1ccc([N+](=O)[O-])cc1 (configuration not stated)
0.432 µM

Ref: PubChem BioAssay (NCI)
